System: chenopodium album L.
measurementNotes: herbicidal activity, soil treatment one day after sowing
Format: in vivo
conditionLabel: 6 kg/ha

compound	activity on C, 0-4 scale
C=CCN(CC=C)C(=O)c1cccc(Br)c1 [PA499, 3-bromo-N,N-di-allyl-benzamide, reference compound]	3
CCC(C)N(C(=O)c1ccc(Cl)c(Cl)c1)C(C)CC (stereo not drawn) [PA106, 3,4-dichloro-N,N-di-sec.butyl-benzamide]	3
O=C(O)c1cc(Cl)cc(Cl)c1 [PA440, 3,5-dichloro-benzoic acid, reference compound]	0
Cc1cccc(C(=O)N(C(C)C)C(C)C)c1 [PA385, 3,methyl-N,N-di-isopropyl-benzamide, reference compound]	1
CCC(C)N(C(=O)c1ccc(Br)c(Br)c1)C(C)CC (stereo not drawn) [PA484, 3,4-dibromo-N,N-di-sec.butyl-benzamide]	2
O=C(O)c1cccc(Br)c1 [PA577, 3,bromo-benzoic acid, reference compound]	0
CCC(C)N(C(=O)c1cc(Cl)c(Cl)c(Cl)c1)C(C)CC (stereo not drawn)	2
CCCCN(CCCC)C(=O)c1ccc(Cl)c(Cl)c1 [PA105, 3,4-dichloro-N,N-di-n.butyl-benzamide, reference compound]	1
CCC(C)N(C(=O)c1ccc(F)c(Br)c1)C(C)CC (stereo not drawn)	3
O=C(O)c1ccc(Cl)c(Cl)c1 [3,4-dichloro-benzoic acid, reference compound]	0
CCN(CC)C(=O)c1ccc(Cl)c(Cl)c1 [PA61, 3,4-dichloro-N,N-diethyl-benzamide, reference compound]	3
CCCCN(C(=O)c1cccc(Br)c1)C(C)CC (stereo not drawn) [PA525, 3-bromo-N,n.butyl-N-sec.butyl-benzamide]	1
CC(C)N(C(=O)c1cc(Cl)cc(Cl)c1Cl)C(C)C [PA302, reference compound]	3
CCC(C)N(C(=O)c1ccc(Cl)c(I)c1)C(C)CC (stereo not drawn)	1
CC(C)CN(CC(C)C)C(=O)c1cccc(Br)c1 [PA521, 3-bromo-N,N-di-isobutyl-benzamide, reference compound]	1
CCC(C)N(CC(C)C)C(=O)c1ccc(Cl)c(Cl)c1 (stereo not drawn)	3
NC(=O)c1ccccc1Cl [C, 2,chloro-benzamide, reference compound]	2
CCC(C)N(C(=O)c1cc(Cl)ccc1Br)C(C)CC (stereo not drawn)	2

====

System: chenopodium album L.
measurementNotes: herbicidal activity, soil treatment one day after sowing
Format: in vivo
conditionLabel: 6 kg/ha
Assign labels as follows, please: true (1) for activity on C, 0-4 scale below 2; false (0) for activity on C, 0-4 scale equal to or exceeding 2.

compound	classification
CCC(C)N(C(=O)c1cccc(Br)c1)C(C)CC (stereo not shown) [PA337/3/Br, 3-bromo-N,N-di-sec.butyl-benzamide]	false (0)
CCCCN(CCCC)C(=O)c1cc(Cl)cc(Cl)c1 [PA294, 3,5-dichloro-N,N-di-n.butyl-benzamide, reference compound]	true (1)
CCC(C)N(C(=O)c1ccc(Cl)c(Cl)c1Cl)C(C)CC (stereo not shown)	false (0)
CCC(C)N(CC)C(=O)c1ccc(Cl)c(Cl)c1 (stereo not shown)	false (0)
O=C(O)c1cccc(Cl)c1 [PA439, 3,chloro-benzoic acid, reference compound]	true (1)
O=C(O)c1ccc(Cl)cc1Cl [PA441, 2,4-dichloro-benzoic acid, reference compound]	true (1)

====

System: setaria glauca L.
measurementNotes: herbicidal activity, soil treatment one day after sowing
Format: in vivo
conditionLabel: 6 kg/ha

compound	targetEntity	activity on E, 0-4 scale
CCN(CC)C(=O)c1cc(Cl)cc(Cl)c1 [PA291, 3,5-dichloro-N,N-diethyl-benzamide, reference compound]	setaria glauca L.	4
CCC(C)N(C(=O)c1c(Cl)cccc1Cl)C(C)CC (stereo not shown) [PA227, 2,6-dichloro-N,N-di-sec.butyl-benzamide]	setaria glauca L.	4
CCC(C)N(C(=O)c1ccc(C)c(C)c1)C(C)CC (stereo not shown) [PA233, 3,4-dimethyl-N,N-di-sec.butyl-benzamide]	setaria glauca L.	4
CCC(C)N(C(=O)c1ccccc1Cl)C(C)CC (stereo not shown) [PA215 2,chloro-N,N-disec.butyl-benzamide, 2-chloro-N,N-di-sec.butyl-benzamide]	setaria glauca L.	3
O=C(O)c1cccc(Br)c1 [PA577, 3,bromo-benzoic acid, reference compound]	setaria glauca L.	0
NC(=O)c1ccccc1Cl [C, 2,chloro-benzamide, reference compound]	setaria glauca L.	0
CCC(C)N(C(=O)c1ccc(Br)c(I)c1)C(C)CC (stereo not shown)	setaria glauca L.	3
CCC(C)N(C(=O)c1ccc(Cl)c(Br)c1)C(C)CC (stereo not shown)	setaria glauca L.	4
CCCN(CCC)C(=O)c1ccc(Cl)cc1Cl [PA200, 2,4-dichloro-N,N-di-n-propyl-benzamide, reference compound]	setaria glauca L.	1
CCC(C)N(C(=O)c1cc(Cl)c(Cl)c(Cl)c1)C(C)CC (stereo not shown)	setaria glauca L.	4
CCC(C)N(C(=O)c1cc(Cl)ccc1Cl)C(C)CC (stereo not shown) [PA412, 2,5-dichloro-N,N-di-sec.butyl-benzamide]	setaria glauca L.	4
CCC(C)N(C(=O)c1ccc(Cl)cc1Cl)C(C)CC (stereo not shown) [PA214, 2,4-dichloro-N,N-di-sec.butyl-benzamide]	setaria glauca L.	4

====

Below, each entry is listed with its recorded activity on C, 0-4 scale.
Tested on: chenopodium album L.
measurementNotes: herbicidal activity, soil treatment one day after sowing
Assay type: in vivo
conditionLabel: 6 kg/ha
measuredParameter: activity on C, 0-4 scale

compound	targetEntity	recordedResult
CCC(C)N(C(=O)c1cc(Cl)cc(Cl)c1)C(C)CC (centres unmarked) [PA234, 3,5-dichloro-N,N-di-sec.butyl-benzamide]	chenopodium album L.	2
CCCCN(CCCC)C(=O)c1cccc(Br)c1 [PA396, 3-bromo-N,N-di-n,butyl-benzamide, reference compound]	chenopodium album L.	0-1
CCC(C)N(C(=O)c1ccc(Br)c(C)c1)C(C)CC (centres unmarked) [PA481]	chenopodium album L.	2-3
CCC(C)N(C(=O)c1c(Cl)cc(Cl)cc1Cl)C(C)CC (centres unmarked) [PA633]	chenopodium album L.	2-3
CCC(C)N(C(=O)c1cccc(C)c1)C(C)CC (centres unmarked) [PA226, 3-methyl-N,N-di-sec.butyl-benzamide]	chenopodium album L.	1-2
CCC(C)N(C(=O)c1ccc(C)c(Cl)c1)C(C)CC (centres unmarked) [PA445]	chenopodium album L.	4
CCCCN(CCCC)C(=O)c1ccc(Cl)cc1Cl [PA282, 2,4-dichloro-N,N-di-n.butyl-benzamide, reference compound]	chenopodium album L.	2
O=C(O)c1cc(Cl)cc(Cl)c1Cl [PA304, 2,3,5-trichloro-benzoic acid, reference compound]	chenopodium album L.	0

====

Below, each entry is listed with its recorded activity on L, 0-4 scale.
System: pisum sativum L. (pea)
measurementNotes: activity on agrarian species, soil treatment one day after sowing
Assay type: in vivo
conditionLabel: in vivo

compound	targetEntity	activity on L, 0-4 scale
CCN(CC)C(=O)c1cccc(Cl)c1 [PA321, 3,chloro-N,N-diethyl-benzamide, reference compound]	pisum sativum L. (pea)	2
CCC(C)N(C(=O)c1cccc(C)c1)C(C)CC (stereo not shown) [PA226, 3-methyl-N,N-di-sec.butyl-benzamide]	pisum sativum L. (pea)	0
CCC(C)N(C(=O)c1c(Cl)cccc1Cl)C(C)CC (stereo not shown) [PA227, 2,6-dichloro-N,N-di-sec.butyl-benzamide]	pisum sativum L. (pea)	0
CCC(C)N(C(=O)c1ccc(Cl)c(Cl)c1Cl)C(C)CC (stereo not shown)	pisum sativum L. (pea)	0
CCC(C)N(C(=O)c1ccc(C)c(Cl)c1)C(C)CC (stereo not shown)	pisum sativum L. (pea)	0
CCC(C)N(C(=O)c1cccc(Br)c1)C(C)CC (stereo not shown) [PA337/3/Br, 3-bromo-N,N-di-sec.butyl-benzamide]	pisum sativum L. (pea)	0
CCC(C)N(C(=O)c1ccc(Br)c(C)c1)C(C)CC (stereo not shown)	pisum sativum L. (pea)	0
CCC(C)N(C(=O)c1cccc(Cl)c1Cl)C(C)CC (stereo not shown) [PA336, 2,3-dichloro-N,N-di-sec.butyl-benzamide]	pisum sativum L. (pea)	0
CCCN(CCC)C(=O)c1cc(Cl)cc(Cl)c1Cl [PA303, reference compound]	pisum sativum L. (pea)	1
CCC(C)N(C(=O)c1ccc(C)c(C)c1)C(C)CC (stereo not shown) [PA233, 3,4-dimethyl-N,N-di-sec.butyl-benzamide]	pisum sativum L. (pea)	0

====

Tested on: setaria glauca L.
measurementNotes: herbicidal activity, soil treatment one day after sowing
Type: in vivo
conditionLabel: 6 kg/ha
Protocol: The infesting species and the agrarian species have been indicated in Table 1 by letters, as follows: Method of evaluation of the results (of tests): 1 slight differences with respect to the control; […] In the case of an intermediate activity between two classes of the scale, both values are recorded with the one which corresponds to the preeminent activity preceding. […]
Assign labels as follows, please: met for activity on E, 0-4 scale below 3; not met for activity on E, 0-4 scale equal to or exceeding 3.

compound	targetEntity	classification
CCCCN(CCCC)C(=O)c1ccc(Cl)cc1Cl [PA282, 2,4-dichloro-N,N-di-n.butyl-benzamide, reference compound]	setaria glauca L.	met
Cc1cccc(C(=O)O)c1 [PA442, 3,methyl-benzoic acid, reference compound]	setaria glauca L.	met
CCC(C)N(C(=O)c1ccc(F)c(Br)c1)C(C)CC (centres unmarked) [PA518]	setaria glauca L.	not met
CCC(C)N(C(=O)c1cc(Cl)cc(Cl)c1)C(C)CC (centres unmarked) [PA234, 3,5-dichloro-N,N-di-sec.butyl-benzamide]	setaria glauca L.	not met
CCC(C)N(C(=O)c1cc(Cl)cc(Cl)c1Cl)C(C)CC (centres unmarked) [PA300]	setaria glauca L.	not met
CCCCN(CCCC)C(=O)c1ccc(Cl)c(Cl)c1 [PA105, 3,4-dichloro-N,N-di-n.butyl-benzamide, reference compound]	setaria glauca L.	met
CCC(C)N(C(=O)c1cccc(Cl)c1Cl)C(C)CC (centres unmarked) [PA336, 2,3-dichloro-N,N-di-sec.butyl-benzamide]	setaria glauca L.	not met
CCC(C)N(C(=O)c1cccc(I)c1)C(C)CC (centres unmarked) [PA491, 3-iodo-N,N-di-sec.butyl-benzamide]	setaria glauca L.	not met
CCC(C)N(C(=O)c1ccc(Cl)c(Cl)c1Cl)C(C)CC (centres unmarked) [PA488]	setaria glauca L.	not met
CCC(C)N(C(=O)c1ccc(C)c(Cl)c1)C(C)CC (centres unmarked) [PA445]	setaria glauca L.	not met
O=C(O)c1ccc(Cl)cc1Cl [PA441, 2,4-dichloro-benzoic acid, reference compound]	setaria glauca L.	met
CCC(C)N(CC(C)C)C(=O)c1ccc(Cl)c(Cl)c1 (centres unmarked) [PA566]	setaria glauca L.	not met
